species: Rattus norvegicus; test: Clearance in rat; type: ADME, organism-based; conditions: in vivo

- smi: "CC(C)(Cc1ccc2ccccc2c1)NC[C@@H](O)COc1cccc(Cl)c1C#N.Cl"
  clearance [mL/min/kg]: 74

These data points were gathered from ChEMBL document CHEMBL1137011.
